- Measured Target: Protein RecA (Mycobacterium tuberculosis, UniProt P9WHJ3)
- Assay Summary: Fluorescence Cell-Free Homogeneous Dose Retest to Identify Inhibitors of RecA-Intein Splicing Activity. [Related pubchem assays (depositor defined):AID2097, AID2223, AID489010, AID492950]
- Type: functional
Active and inactive are the calls of the source.
Possible outcomes: active, inactive

[[record]]
compound = "CCN(CC)CCOc1ccc(/C(=C(\\Cl)c2ccccc2)c2ccccc2)cc1.O=C(O)CC(O)(CC(=O)O)C(=O)O [CLOMIPHENE CITRATE]"
category = "active"

[[record]]
compound = "CCN(Cc1ccccc1)C(c1ccc(C)cc1)c1nnnn1C(C)(C)CC (stereo not given)"
category = "inactive"

[[record]]
compound = "CSc1ccc(C(c2c(C)n[nH]c2O)c2c(C)n[nH]c2O)cc1"
category = "active"

[[record]]
compound = "COc1ccccc1/C=C1/C(=O)N(c2ccccc2)N=C1C"
category = "active"

[[record]]
compound = "O=C(CCl)NN=C(c1ccccc1)c1ccccc1"
category = "active"

[[record]]
compound = "Cc1ccc2c(c1)N(C(=O)CSc1nncn1C)C(C)(C)c1ssc(=S)c1-2"
category = "active"

[[record]]
compound = "CCOC(=O)CNc1nnc(SCC(=O)OCC)[nH]c1=O"
category = "active"

[[record]]
compound = "COC(=O)COc1ccc(C(c2c(C)n[nH]c2O)c2c(C)n[nH]c2O)cc1"
category = "active"

[[record]]
compound = "Oc1cc(N=Nc2ccc(Cl)cc2)nc(O)n1"
category = "active"


* * *

- Measured Target: Genome polyprotein (dengue virus type 2, UniProt P29990)
- Sequence (P29990 2492-3391 limits assumed): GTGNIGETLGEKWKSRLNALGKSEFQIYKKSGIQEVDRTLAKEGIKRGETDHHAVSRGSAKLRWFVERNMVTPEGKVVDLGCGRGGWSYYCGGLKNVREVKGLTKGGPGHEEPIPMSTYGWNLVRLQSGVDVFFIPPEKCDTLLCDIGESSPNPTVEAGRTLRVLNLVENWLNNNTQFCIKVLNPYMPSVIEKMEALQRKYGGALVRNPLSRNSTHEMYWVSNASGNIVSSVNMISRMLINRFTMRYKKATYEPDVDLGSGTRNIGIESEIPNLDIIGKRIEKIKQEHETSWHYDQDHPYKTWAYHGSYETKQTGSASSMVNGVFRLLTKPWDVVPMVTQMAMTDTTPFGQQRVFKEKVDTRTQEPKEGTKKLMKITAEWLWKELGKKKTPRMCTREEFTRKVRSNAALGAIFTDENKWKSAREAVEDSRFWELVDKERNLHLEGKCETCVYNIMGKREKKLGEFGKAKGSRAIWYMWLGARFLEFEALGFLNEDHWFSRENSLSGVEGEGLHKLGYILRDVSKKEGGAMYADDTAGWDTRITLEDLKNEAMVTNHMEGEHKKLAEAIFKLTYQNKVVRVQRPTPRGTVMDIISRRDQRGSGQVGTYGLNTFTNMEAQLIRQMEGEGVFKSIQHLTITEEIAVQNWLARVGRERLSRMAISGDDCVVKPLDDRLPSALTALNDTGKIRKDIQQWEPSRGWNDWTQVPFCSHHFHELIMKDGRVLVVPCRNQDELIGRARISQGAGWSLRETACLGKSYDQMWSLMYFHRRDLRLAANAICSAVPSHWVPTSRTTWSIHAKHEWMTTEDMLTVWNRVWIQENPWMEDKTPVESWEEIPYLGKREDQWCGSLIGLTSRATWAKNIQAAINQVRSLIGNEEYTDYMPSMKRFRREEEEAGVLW
- Assay Summary: flavivirus cap methylation enzyme inhibition – biochemical, confirmation dose response, primary screen (AID 588689)
- Type: functional
Calls of active or inactive are those of the source.
Measured Parameter: IC50

[[record]]
compound = "COCCNC(=O)Nc1ccc2nc(-c3ccco3)c(-c3ccco3)nc2c1"
val = "27.9 µM (active)"

[[record]]
compound = "O=C(O)Cc1ccc(N=Nc2c(O)c(C(=O)O)cc3ccccc23)cc1"
val = "68.1 µM (active)"

[[record]]
compound = "CCOC(=O)C1(C)C(N=Nc2cccc(Cl)c2)=C(O)C(=O)N1c1ccccc1 (stereo unspecified)"
val = "18.4 µM (active)"

[[record]]
compound = "CCCCCCn1c(=O)c(-c2ccccc2)c(O)c2ccccc21"
val = "69.4 µM (active)"

[[record]]
compound = "COc1ccccc1/C=C1/C(=O)N(c2ccccc2)N=C1C"
val = "90.2 µM (active)"

[[record]]
compound = "CCOC(=O)/C=C(\\C)Sc1cc(O)c2ccccc2c1O"
val = "5.24 µM (active)"

[[record]]
compound = "C[n+]1c2ccccc2nc2ccc(NCCO)cc21"
val = "18.6 µM (active)"

[[record]]
compound = "COc1cc(C(C2C(=O)CC(C)(C)CC2=O)C2C(=O)CC(C)(C)CC2=O)cc(OC)c1OC"
val = "87.7 µM (active)"

[[record]]
compound = "O=C1NC(=S)NC(=O)C12C(c1ccccc1)NC(=S)NC2c1ccccc1 (stereo unspecified)"
val = "69.4 µM (active)"

[[record]]
compound = "COc1cc(/C=C2/C(=O)c3cccc([N+](=O)[O-])c3C2=O)c(Br)cc1O"
val = "7.44 µM (active)"

[[record]]
compound = "Cc1c(CCC(=O)O)c(=O)oc2c(C)c3occ(-c4ccc(Br)cc4)c3cc12"
val = "33.2 µM (active)"


Each recorded value in this set is attributed to ChEMBL document CHEMBL1201862.
